test: Plasma pharmacokinetics, LC-MS/MS, non-compartmental analysis; type: in vivo, human; conditions: human, plasma, po, 150 mg
endpoint label: AUC(0-t) (ng·h/mL)
Write the answer as a number in ng·h/mL, unit excluded.

## Task Name the recorded AUC(0-t) for `CCN1CCN(Cc2ccc(Nc3ncc(F)c(-c4cc(F)c5nc(C)n(C(C)C)c5c4)n3)nc2)CC1` .
## Result 1700

====

test: Plasma pharmacokinetics, LC-MS/MS, non-compartmental analysis; type: in vivo, human; conditions: human, plasma, po, 150 mg
endpoint label: AUC(0-inf) (ng·h/mL)
Write the answer as a number in ng·h/mL, unit excluded.

## Task Name the recorded AUC(0-inf) for `CCN1CCN(Cc2ccc(Nc3ncc(F)c(-c4cc(F)c5nc(C)n(C(C)C)c5c4)n3)nc2)CC1` .
## Result 6790

====

test: Plasma pharmacokinetics, LC-MS/MS, non-compartmental analysis; assay type: in vivo, human; details: human, plasma, oral, Mean abemaciclib Cmax, after a single dose
endpoint label: Cmax (ng/mL)
Write the answer as a number in ng/mL, unit excluded.

## Task Name the recorded Cmax for `CCN1CCN(Cc2ccc(Nc3ncc(F)c(-c4cc(F)c5nc(C)n(C(C)C)c5c4)n3)nc2)CC1` .
## Result 200

====

test: Plasma pharmacokinetics, LC-MS/MS, non-compartmental analysis; type: in vivo, human; details: human, plasma, oral, 200 mg, Mean abemaciclib Cmax, after multiple doses of 150 or 200 mg
endpoint label: Cmax

## Task Name the recorded Cmax for `CCN1CCN(Cc2ccc(Nc3ncc(F)c(-c4cc(F)c5nc(C)n(C(C)C)c5c4)n3)nc2)CC1` .
## Result 260 to 320 ng/mL

====

experiment: Plasma pharmacokinetics, LC-MS/MS, non-compartmental analysis; type: in vivo, human; conditions: human, plasma, po, 200 mg
endpoint label: Vd/F
Field: value (include unit after the number)

## Task Name the recorded Vd/F for `CCN1CCN(Cc2ccc(Nc3ncc(F)c(-c4cc(F)c5nc(C)n(C(C)C)c5c4)n3)nc2)CC1` .
## Result 955 L

====

assay: Plasma pharmacokinetics, LC-MS/MS, non-compartmental analysis; type: in vivo, human; details: human, plasma, po, 200 mg
endpoint label: half-life (h)
Write the answer as a number in h, unit excluded.

## Task Name the recorded half-life for `CCN1CCN(Cc2ccc(Nc3ncc(F)c(-c4cc(F)c5nc(C)n(C(C)C)c5c4)n3)nc2)CC1` .
## Result 22.8

====

experiment: Plasma pharmacokinetics, LC-MS/MS, non-compartmental analysis; assay type: in vivo, human; conditions: human, plasma, po, 150 mg
endpoint label: half-life (h)
Write the answer as a number in h, unit excluded.

## Task Name the recorded half-life for `CCN1CCN(Cc2ccc(Nc3ncc(F)c(-c4cc(F)c5nc(C)n(C(C)C)c5c4)n3)nc2)CC1` .
## Result 22.4

====

experiment: Plasma pharmacokinetics, LC-MS/MS, non-compartmental analysis; type: in vivo, human; settings: human, plasma, po, 150 mg
endpoint label: Vd/F (L)
Write the answer as a number in L, unit excluded.

## Task Name the recorded Vd/F for `CCN1CCN(Cc2ccc(Nc3ncc(F)c(-c4cc(F)c5nc(C)n(C(C)C)c5c4)n3)nc2)CC1` .
## Result 767

====

experiment: Plasma pharmacokinetics, LC-MS/MS, non-compartmental analysis; format: in vivo, human; conditions: human, plasma, po, 200 mg
endpoint label: AUC(0-t) (ng·h/mL)
Write the answer as a number in ng·h/mL, unit excluded.

## Task Name the recorded AUC(0-t) for `CCN1CCN(Cc2ccc(Nc3ncc(F)c(-c4cc(F)c5nc(C)n(C(C)C)c5c4)n3)nc2)CC1` .
## Result 1740
